Target: 4'-phosphopantetheinyl transferase ffp (Bacillus subtilis)
Assay: qHTS Assay for Inhibitors of Bacillus subtilis Sfp phosphopantetheinyl transferase (PPTase);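 also: the enzyme is Sfp with the accession as filed and its product quenches rhodamine fluorescence; 0% = enzyme reaction without inhibitor and -100% = no enzyme wells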
Details: Biochemical Sfp PPTase activity
Among all 310,000 compounds or so, about 11,000 (3.5%) were called active. Inconclusive results (about 4%) are left out. Only a selection was taken, and actives are over-represented in it overall.
ASSAY_ENDPOINT: largest response in the series, negative = inhibition (%)

| STRUCTURE | READING |
| --- | --- |
| O=S(O)S(=O)(=O)O | 7.74 |
| N#CC1(NC(=O)COC(=O)CCN=C2NS(=O)(=O)c3ccccc32)CCCCC1 | 8.87 |
| CC(=O)Nc1ccc(NC(=O)COc2ccc(-c3ccccc3)cc2)cc1 | 13.3 |
| O=S(=O)(NCCc1ccc(Cl)cc1)c1cccs1 | 7.54 |
| O=C(Nc1ccccc1C(=O)Nc1ccncc1)c1ccc([N+](=O)[O-])cc1 | 4.06 |
| CC(C)NS(=O)(=O)c1ccc(OCC(=O)NC2CCCCCC2)cc1 | 6.32 |

----------
Biological target: 4'-phosphopantetheinyl transferase ffp (Bacillus subtilis) (UniProt Q9F4F7)
Experiment: qHTS Assay for Inhibitors of Bacillus subtilis Sfp phosphopantetheinyl transferase (PPTase);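 also: the enzyme is Sfp with the accession as filed and its product quenches rhodamine fluorescence; 0% = enzyme reaction without inhibitor and -100% = no enzyme wells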
Conditions: Biochemical Sfp PPTase activity
The whole screen tested about 310,000 compounds, of which about 11,000 (3.5%) were called active. Roughly 4% stayed inconclusive and do not appear here. The sample holds actives, similar compounds and a random draw of the others, so the mix is not that of the screen.
ASSAY_ENDPOINT: largest response in the series, negative = inhibition (%)

| COMPOUND | READING |
| --- | --- |
| Cc1ccccc1-c1nc(N(C)Cc2ccco2)c2ccccc2n1 | -22.5 |
| COc1ccc(C(CCN2CCOCC2)c2c(OC)cc(OC)c3c2OC(=O)CC3c2ccc(OC)cc2)cc1 (stereo not given) | -11.3 |
| Cn1nc(-c2ccccc2)c2cc([N+](=O)[O-])ccc21 | 15.4 |
| Cc1cccc(OP(=O)(Nc2c(C)n(C)n(-c3ccccc3)c2=O)Oc2cccc(C)c2)c1 | 2 |
| O=c1cc(-c2ccc(O)cc2)oc2c(-c3cc(-c4cc(=O)c5c(O)cc(O)cc5o4)ccc3O)c(O)ccc12 | -11.5 |
| Cn1c2ccccc2c(=O)c2c(O)cccc21 | 1.81 |
| COc1cc(NC(=O)CN2C(=O)NC(C)(c3ccc(OC(F)F)cc3)C2=O)cc(OC)c1OC (stereo not given) | 17.8 |
| Cc1ccc(N/C=C/C(=O)c2ccccc2)cc1C | -6.7 |
| CCOCc1nnc(NC(=O)CCC2CCCCC2)s1 | 18.1 |
| Cc1nc([N+](=O)[O-])cn1CC(=O)Nc1ccc(Cl)cc1 | 16.2 |

----------
Target: 4'-phosphopantetheinyl transferase ffp (Bacillus subtilis)
Assay: qHTS Assay for Inhibitors of Bacillus subtilis Sfp phosphopantetheinyl transferase (PPTase);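 also: the enzyme is Sfp with the accession as filed and its product quenches rhodamine fluorescence; 0% = enzyme reaction without inhibitor and -100% = no enzyme wells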
Conditions: Biochemical Sfp PPTase activity
Screen size: about 310,000 compounds; about 11,000 (3.5%) were called active. Inconclusive results (about 4%) are left out. Shown is part of a subset that was picked to be rich in actives.
ASSAY_ENDPOINT: largest response in the series, negative = inhibition (%)

| COMPOUND | READING |
| --- | --- |
| COc1ccc(C(=O)NCc2nnc(SCC(=O)NC3=NCCS3)n2C)cc1 | -3.34 |
| CC(=O)c1cc2c(cc1NC(=O)Cn1nc(-c3ccc(F)cc3)ccc1=O)OCO2 | 8.25 |
| C/C=C/C=N/NC(=O)c1ccncc1 | -22.5 |
| Cc1ccn2c(=O)c(C(=O)NCCC3=CCCCC3)c(O)nc2c1 | -5.56 |
| COc1ccc(CCn2c(=N)c(C(=O)NCc3ccco3)cc3c(=O)n4cccc(C)c4nc32)cc1 | -13.5 |
| CCOC(=O)N1CCN(C(=O)C(=O)Nc2sc3c(c2C#N)CC(C)(C)OC3)CC1 | -14.6 |
| CCN(CC)c1ccc(NC(=O)CCc2nnc3ccc(N4CCCCC4)nn23)c(C)c1 | 2.26 |
| CSC(=S)N/N=C/c1c[nH]c2ccccc12 | 7.95 |
| O=C1c2ccccc2C(=O)N1c1cccc2ccccc12 | 4.99 |
| O=C1OC2(CCCCC2)CC2=C1C1O[C@](c3ccsc3)(Cc3ccccc31)O2 | -2.9 |
| O=C(Nc1cccc(-c2nc3ccccc3[nH]2)c1)c1ccc(C(=O)Nc2cccc(-c3nc4ccccc4[nH]3)c2)cc1 | -19.4 |
| CCn1c2ccc(F)cc2c2nnc(SCCN3CCOCC3)nc21 | -2.54 |
| S=c1[nH]nc(-c2ccncc2)n1/N=C/c1ccccc1Cl | -1.85 |
| Cc1nc(COc2cc3oc(=O)cc(C)c3cc2Cl)cs1 | -11.1 |
| O=C(Nc1cccc(F)c1)[C@@H]1CCCN1 | 1.19 |
| C=CCCN(C(Cc1ccccc1)C(=O)OC)S(=O)(=O)c1cc(Br)ccc1Br (configuration not stated) | 7.63 |
| O=C(CCCC(=O)N1CCN(c2cccc(Cl)c2)CC1)c1ccccc1 | -3.1 |
| CSc1nc2sc3c(c2c(=O)[nH]1)CCc1ccccc1-3 | 2.54 |
| COc1ccc(C(=O)CC(=O)C(=O)Nc2cc([N+](=O)[O-])ccc2OC)cc1 | 1.31 |
| Cc1ccc(N2C(=O)CC(Nc3cccc4ccccc34)C2=O)cc1 (configuration not stated) | 3.72 |
| CSc1ccccc1OCc1cc(C(=O)N(C)CCc2c(C)n[nH]c2C)no1 | 0.222 |
| O=C(Cc1cccs1)Nc1cccc(-c2nc3ccccc3[nH]2)c1 | 9.29 |
